# Tested on: BT-549 breast
# assay details: NCI tumour cell line growth inhibition, 48 h
parameter: TGI

q: Reported TGI for Fc1ccc2nc3n(c2c1)C(c1c(F)cccc1F)SC3 (stereo unspecified) : what is it?
a: > 100 µM

q: Please answer likewise for CN1CCN(Cc2ccc(NC(=O)c3cncc(C#Cc4cnc(N)c5ccncc45)c3)cc2C(F)(F)F)CC1
a: > 46.6 µM

q: Please answer likewise for CSc1nc(N)c(NC2OC(CO)C(O)C2O)c(=O)[nH]1 (stereo unspecified)
a: > 100 µM

q: Please answer likewise for O=C(/C(=C/c1ccccc1)CN1CCCCC1)c1ccccc1
a: 3.85 µM

q: Please answer likewise for CCCn1c(C)nc2c1C(=O)c1ccccc1C2=O
a: > 100 µM

q: Please answer likewise for COc1c2c(cc3oc(C)cc(=O)c13)OC(=N)C(C(N)=O)C2CC(=O)c1ccc(N)cc1 (stereo unspecified)
a: > 100 µM

q: Please answer likewise for CCCCCC/C=C\CCCCCCCCCc1cccc(O)c1C(=O)O
a: > 100 µM

q: Please answer likewise for N#C/C(=C\c1c(-c2ccccc2)[nH]c2ccccc12)S(=O)(=O)c1ccccc1
a: > 56.9 µM

q: Please answer likewise for CN(C)c1ccc(/C=N\NC(=O)CSCC(=O)N/N=C/c2ccc(N(C)C)cc2)cc1
a: 80.4 µM

q: Please answer likewise for CN1CCCCC1CCN1CCCCC1 (stereo unspecified)
a: > 100 µM

q: Please answer likewise for C/C(=N\Nc1ccc2ccccc2n1)c1ccccn1
a: 16.6 µM
